Tgt: human mAChR M4 (Homo sapiens)
Construct: expressed in transfected cells
Sequence (P08173 whole entry): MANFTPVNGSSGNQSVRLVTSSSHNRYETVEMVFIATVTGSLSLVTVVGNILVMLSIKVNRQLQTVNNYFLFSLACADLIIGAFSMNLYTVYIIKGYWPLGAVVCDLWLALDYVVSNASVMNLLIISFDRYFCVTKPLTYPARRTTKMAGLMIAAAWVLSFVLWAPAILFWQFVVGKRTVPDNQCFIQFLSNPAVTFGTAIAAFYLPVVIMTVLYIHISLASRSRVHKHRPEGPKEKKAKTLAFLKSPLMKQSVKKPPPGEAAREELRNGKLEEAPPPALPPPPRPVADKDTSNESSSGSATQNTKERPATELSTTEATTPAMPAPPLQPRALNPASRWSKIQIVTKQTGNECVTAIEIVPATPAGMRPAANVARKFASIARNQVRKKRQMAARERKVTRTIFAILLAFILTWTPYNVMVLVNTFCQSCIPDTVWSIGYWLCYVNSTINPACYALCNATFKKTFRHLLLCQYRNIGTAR
Assay Summary: mAChR M4 cell-based functional assay (calcium mobilization, CHO-K1 hM4-Gqi5 cells)
Condition: positive allosteric modulator activity, increase in the EC20 acetylcholine response, CHO-K1 hM4-Gqi5 cells; read-out: Human M4 EC50
Endpoint: EC50 (nM)
Could you give me the number in nM? Just the number is fine.

Use these answered entries as a reference point.
Cc1cc(C(=O)N2CC(F)C2)nnc1N1CCc2ncc(-c3ccnn3C)cc2C1 [Example 563]; 74
Cc1cc(C#N)nnc1N1CCc2ncc(N3CCN(C)C(=O)C3)cc2C1 [Example 410]; 3800
Cc1ncc(CNC(=O)c2cnc(N3CCc4ncccc4C3)c(C)c2)s1 [compound 127]; 2620

Record Cc1cc(C#N)cnc1N1CCc2ncc(Nc3ccccc3F)cc2C1 [Example 7] . Reported EC50: 90.5

The recorded EC50 for entry Cc1cc(C(=O)NCc2nccs2)cnc1N1CCc2ncc(-c3cn(C)nc3C)cc2C1 [compound 170] equals 110
